System: SK-MEL-28 melanoma
Assay: NCI-60 one-dose screen, 48 h
Settings: 10 µM unless noted
Protocol: Growth inhibition of the SK-MEL-28 human tumor cell line is measured as a screen for anti-cancer activity. Cells are grown in 96 well plates and exposed to the test compound for 48 hours. Compounds are tested at a single concentration, which is 10^-5 M for most compounds. The reported endpoint is percent growth (GI% or GIPRCNT), where numbers from 0 - 100% represent growth inhibition, and numbers from -100% - 0 represent cell death. For example, a value of 40 represents 60% growth inhibition. […]
About 83,000 compounds went through this panel and 20% of them were active in at least one assay; those are over-represented in the sample as a whole. Calls of active or inactive are those of the source. How the source made its calls: active means growth percent below 10; inactive means the rest.
Outcome codes: yes (1) = active, no (0) = inactive

[[record]]
molecule = "O=CN1N=C(c2cccc(Nc3ccnc4cc(Cl)ccc34)c2)CC1c1ccccc1 (configuration not stated)"
subject_of_test = "SK-MEL-28 melanoma"
label_value = "no (0)"

[[record]]
molecule = "CC/C(=C(/c1ccc(Cl)cc1)c1ccc(OCCN2CCCCC2)cc1)c1ccc(OC)cc1"
subject_of_test = "SK-MEL-28 melanoma"
label_value = "no (0)"

[[record]]
molecule = "O=C1C(=O)N(Cc2ccc(-c3ccccc3)cc2)c2ccc(OC(F)(F)F)cc21"
subject_of_test = "SK-MEL-28 melanoma"
label_value = "no (0)"

[[record]]
molecule = "COC(=O)c1cc(N=C2NC(=O)/C(=C/C=C/c3ccccc3)S2)ccc1O"
subject_of_test = "SK-MEL-28 melanoma"
label_value = "no (0)"

[[record]]
molecule = "CC1OC(n2c3ccccc3c3c4c(c5c6ccccc6[nH]c5c32)C(=O)N(CCN2CCCC2)C4=O)CC(O)C1O (configuration not stated)"
subject_of_test = "SK-MEL-28 melanoma"
label_value = "no (0)"

[[record]]
molecule = "Cn1c(=O)cc2c3c(c(NCCCO)ccc31)C(=O)c1ccccc1-2"
subject_of_test = "SK-MEL-28 melanoma"
label_value = "no (0)"

[[record]]
molecule = "Clc1cccc(Nc2ncnc3ccc(-c4cnc5[nH]ccc5c4)cc23)c1"
subject_of_test = "SK-MEL-28 melanoma"
label_value = "no (0)"

[[record]]
molecule = "O=C(CN1C(=O)NC2NC(=O)NC21)N/N=C/c1ccccc1[N+](=O)[O-] (configuration not stated)"
subject_of_test = "SK-MEL-28 melanoma"
label_value = "no (0)"

[[record]]
molecule = "CCN1CCN(C(=O)[C@]23CCC(C)(C)C[C@@H]2C2=CC[C@@H]4[C@@]5(C)CCC(=O)C(C)(C)[C@@H]5CC[C@@]4(C)[C@]2(C)CC3)CC1"
subject_of_test = "SK-MEL-28 melanoma"
label_value = "no (0)"

[[record]]
molecule = "Nc1ncnc2c1c(-c1cccc(Cl)c1)nn2CC(=O)N1CCOCC1"
subject_of_test = "SK-MEL-28 melanoma"
label_value = "no (0)"

[[record]]
molecule = "C=C1C(=O)O[C@H]2[C@H]1CC/C(COC(=O)c1cc3ccccc3s1)=C\\CC[C@@]1(C)O[C@@H]21"
subject_of_test = "SK-MEL-28 melanoma"
label_value = "yes (1)"

[[record]]
molecule = "COC1=CC(c2ccc[nH]2)=N/C1=C\\c1[nH]c(C)c(C)c1CCC(=O)OCc1ccccc1"
subject_of_test = "SK-MEL-28 melanoma"
label_value = "yes (1)"

